System: NCI-H1155 (lung cancer cells)
protocol-summary: CytoX cell viability assay in NCI-H1155 lung cancer cells
experimental-conditions: Homo sapiens, NCI-H1155, 72 h, read-out: NCI-H1155 (% viability) at 500 nM
Assign labels as follows, please: MET for viability at 0.5 µM below 30%; NOT MET for viability at 0.5 µM equal to or exceeding 30%.

Field: example entries. Status: answers known.
Ask: Is viability at 0.5 µM strictly under 30% for the entry O=C1CCC(N2Cc3cc(CNC(=O)C4CC4c4ccc(C(F)(F)F)cc4)ccc3C2=O)C(=O)N1 (centres unmarked) ?
Reply: NOT MET

Ask: Is 30% strictly greater than the compound's reported viability at 0.5 µM? compound: O=C1CCC(N2Cc3cc(CNC(=O)[C@@H]4C[C@H]4c4ccc(F)cc4)ccc3C2=O)C(=O)N1 (some centres unmarked)
Reply: MET

Ask: Bench note: check whether O=C1CCC(N2Cc3cc(CNC(=O)C4CCC4c4ccccc4)ccc3C2=O)C(=O)N1 (centres unmarked) shows viability at 0.5 µM below 30%
Reply: NOT MET

Ask: Please indicate whether the reported viability at 0.5 µM of O=C1CCC(N2Cc3cc(CNC(=O)C4CC4c4ccc(Cl)cc4Cl)ccc3C2=O)C(=O)N1 (centres unmarked) is strictly below 30%.
Reply: MET

Continue with the compound presented below.
Ask: Does the reported viability at 0.5 µM of the following compound sit strictly below 30%? O=C1CCC(N2Cc3cc(CNC(=O)[C@@H]4C[C@H]4c4ccc(Cl)cc4)ccc3C2=O)C(=O)N1 (some centres unmarked) [Cpd. 3]
Reply: MET
